# assaySystem: UniProtKB P05067
# Sequence (P05067 whole entry): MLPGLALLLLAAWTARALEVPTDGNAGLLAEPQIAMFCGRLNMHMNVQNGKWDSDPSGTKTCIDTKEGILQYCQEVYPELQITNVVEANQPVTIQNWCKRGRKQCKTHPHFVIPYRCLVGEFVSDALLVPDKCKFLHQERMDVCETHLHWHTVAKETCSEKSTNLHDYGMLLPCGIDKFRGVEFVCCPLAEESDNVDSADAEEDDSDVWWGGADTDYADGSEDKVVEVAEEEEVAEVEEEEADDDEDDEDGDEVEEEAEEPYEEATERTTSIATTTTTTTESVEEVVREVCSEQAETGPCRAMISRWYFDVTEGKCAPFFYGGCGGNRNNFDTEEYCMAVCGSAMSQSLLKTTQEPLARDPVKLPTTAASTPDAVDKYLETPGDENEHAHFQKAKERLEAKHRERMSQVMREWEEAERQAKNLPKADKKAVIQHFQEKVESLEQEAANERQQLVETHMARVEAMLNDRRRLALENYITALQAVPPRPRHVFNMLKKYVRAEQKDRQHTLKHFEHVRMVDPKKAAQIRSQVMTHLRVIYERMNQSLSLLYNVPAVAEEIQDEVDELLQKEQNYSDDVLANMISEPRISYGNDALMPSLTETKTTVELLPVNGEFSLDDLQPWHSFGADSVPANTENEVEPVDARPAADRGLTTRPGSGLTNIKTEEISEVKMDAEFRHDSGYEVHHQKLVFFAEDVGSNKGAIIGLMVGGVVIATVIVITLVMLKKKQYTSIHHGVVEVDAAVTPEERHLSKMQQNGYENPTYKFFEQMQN
# procedureText: Inhibition of amyloid beta (1 to 42) (unknown origin) assessed as fibril formation at 10 uM incubated with agitation for 1 min every hr measured over 80 hrs by thioflavin-T assay relative to control
# Set-up: scale not given: the % may be the effect or the level left
measuredProperty: Activity (%)
Give just the numeric value; % need not be written.

O=C(/C=C/c1ccc(O)c(O)c1)NCCOCCOCCOCCNC(=O)/C=C/c1ccc(O)c(O)c1 :: 79.4

Memo: O=C(/C=C/c1ccc(O)c(O)c1)NCCOCCOCCOCCOCCNC(=O)/C=C/c1ccc(O)c(O)c1 , reported Activity: 61.8

Memo: C#CCCCCNC(=O)/C=C/c1ccc(O)c(O)c1 , reported Activity: 67.6

Memo: O=C(/C=C/c1ccc(O)c(O)c1)CC(=O)/C=C/c1ccc(O)c(O)c1 , reported Activity: 11.5

Memo: O=C(/C=C/c1ccc(O)c(O)c1)NCCCc1cn(Cc2ccc(-c3ccc(Cn4cc(CCCNC(=O)/C=C/c5ccc(O)c(O)c5)nn4)cc3)cc2)nn1 , reported Activity: 112
